Dear all, this message contains HeLa-ACE2 CC50/CoV-2 EC50 results, target or system SARS-CoV-2.
Residues, ends and D or L forms follow the SMILES beside them. *: point of attachment. Cbz = O=C(OCc1ccccc1)*; CHN2 = [N-]=[N+]=C*

Study these solved cases before continuing.
compound: CC(C)(C)NC(=O)N[C@H](C(=O)N1C[C@H]2[C@@H]([C@H]1C(=O)NC(CC1CCC1)C(=O)C(N)=O)C2(C)C)C(C)(C)C (stereo partly shown)
assayed system: SARS-CoV-2
HeLa-ACE2 CC50/CoV-2 EC50: 4.27
--
compound: CC(C)CC(NC(=O)OCc1ccccc1)C(=O)NC(C(=O)NCC(=O)C=[N+]=[N-])C(C)C (stereo not drawn) [Z LVG CHN2] (Cbz-Leu-Val-Gly-CHN2; configuration not given here)
assayed system: SARS-CoV-2
HeLa-ACE2 CC50/CoV-2 EC50: >554.29
--
compound: NCCc1cn(S(=O)(=O)c2c(Cl)nc3sccn23)c2ccccc12
assayed system: SARS-CoV-2
HeLa-ACE2 CC50/CoV-2 EC50: 4.02

# context switch: different compound, same HeLa-ACE2 CC50/CoV-2 EC50
Memo: COc1ccc2c(c1)CN(C)CC2c1ccc(Cl)c(Cl)c1 (stereo not shown) , reported HeLa-ACE2 CC50/CoV-2 EC50: <1.28

* * *

test system: SARS-CoV-2; assay: microbe, parasite or virus in culture; details: Severe acute respiratory syndrome coronavirus 2, HeLa-ACE2, read-out: HeLa-ACE2 CoV-2 EC50 [μM], Table 4; aggregated data, Geomean, n = 3
So I've got a bunch of compounds here, and I need their EC50 values.
Give bare numbers, in µM.

Please look at the items below and tell me EC50 for each one, in order.
1. COC(=O)[C@@]12OC[C@]34[C@H]([C@@H](O)[C@@H]1O)[C@@]1(C)CC(=O)C(O)=C(C)[C@@H]1C[C@H]3OC(=O)[C@H](OC(=O)/C=C(\C)C(C)C)[C@@H]24 [Bruceantin]
2. COC1CC(OC2CCC3(C=O)[C@H]4CCC5(C)C(C6=CC(=O)OC6)CCC5(O)[C@@H]4CCC3(O)C2)OC(C)C1O (stereo partly drawn) [CYMARINE]
3. Cn1c(C#N)ccc1-c1ccc2c(c1)C(C)(C)OC(=S)N2 [tanaproget]

Solution:
[0.006, 0.237, 0.141]

Memo: CC(=O)O[C@H]1C[C@H](O[C@H]2[C@@H](O)C[C@H](O[C@H]3[C@@H](O)C[C@H](O[C@H]4CCC5(C)[C@H](CC[C@@H]6[C@@H]5CCC5(C)[C@@H](C7=CC(=O)OC7)[C@@H](O)CC65O)C4)O[C@@H]3C)O[C@@H]2C)O[C@H](C)[C@H]1O[C@@H]1O[C@H](CO)[C@@H](O)[C@H](O)[C@H]1O (stereo partly drawn) [[…]] , reported EC50: 0.803

* * *

So I've got a bunch of compounds here, and I need their CC50 values.
assay: in vitro; conditions: human, HeLa-ACE2 Uninfected Tox CC50 [μM]
Give bare numbers, in µM.

Study these solved cases before continuing.
compound: COc1ccc2c(c1)c(CC(=O)NO)c(C)n2C(=O)c1ccc(Cl)cc1
value units: µM
CC50: 5.87
--
compound: C[C@H]1O[C@@H](O[C@H]2[C@@H](O)C[C@@H](O[C@@H]3[C@@H](O)C[C@H](O[C@H]4CC[C@@]5(C)[C@H](CC[C@@H]6[C@@H]5C[C@@H](O)[C@]5(C)[C@@H](C7=CC(=O)OC7)CC[C@]65O)C4)O[C@@H]3C)O[C@@H]2C)C[C@H](O)[C@@H]1O (stereo in doubt)
value units: µM
CC50: 0.12

# context switch: different compound, same CC50
Memo: COc1ccc2c(c1)[C@]1(CC1c1ccc3c(/C=C/c4ccc(CN5C[C@@H](C)O[C@@H](C)C5)cc4)n[nH]c3c1)C(=O)N2 (stereo partly shown) , reported CC50: 7.18

* * *

assay: in vitro; settings: human
result type: CC50 (µM)
Answers are plain numbers, in µM.

Please look at the items below and tell me CC50 for each one, in order.
1. CC(C)(O)c1ccccc1-c1ccc2[nH]c(/C=C/c3ccc(C(F)(F)F)cc3)nc2c1
2. COC1CC(OC2CCC3(C=O)[C@H]4CCC5(C)C(C6=CC(=O)OC6)CCC5(O)[C@@H]4CCC3(O)C2)OC(C)C1O (stereo partly drawn)
3. Nc1ncnc2c1ccn2[C@@H]1O[C@H](CO)[C@@H](O)[C@H]1O
4. O=c1[nH]c(=O)n([C@@H]2O[C@H](CO)[C@@H](O)[C@H]2O)cc1F

Solution:
[14.6, 5.87, 1.07, 8.73]

* * *

Dear all, this message contains HeLa-ACE2 CC50/CoV-2 EC50 results, target or system SARS-CoV-2.
Where a name gives a salt, the structure may show the parent alone.

Study these solved cases before continuing.
molecule: CCN(CC)Cc1cc(Nc2ccnc3cc(Cl)ccc23)ccc1O
reported value: >33.48

molecule: Cc1ccc(C(=O)Nc2cccc(C(F)(F)F)c2)cc1NC(=O)c1cccc2c(N)nccc12
reported value: >3.37

molecule: CCCCN(CCCC)CCC(O)c1cc2c(Cl)cc(Cl)cc2c2cc(C(F)(F)F)ccc12 (centres unmarked) [Halofantrine HCl]
reported value: >20.66

molecule: CCOC(=O)/C=C/[C@H](C[C@@H]1CCNC1=O)NC(=O)[C@@H](CC(=O)[C@@H](NC(=O)c1cc(C)on1)C(C)C)Cc1ccc(F)cc1
reported value: 4.15

molecule: CNCc1ccc(OC)c([C@]2(N3CCC[C@H]3c3ncco3)C(=O)N(S(=O)(=O)c3ccc(OC)cc3)c3ccc(Cl)cc32)c1
reported value: >4.37

molecule: O=C(c1ccc(OCCN2CCCCC2)cc1)c1c(-c2ccc(O)cc2)sc2cc(O)ccc12 [raloxifene hydrochloride]
reported value: >2.97

molecule: CN(C)CCOc1ccc2c(=O)c3ccc(OCCN(C)C)cc3oc2c1 [TILORINE DIHYDROCHLORIDE]
reported value: 11.07

molecule: C=CC(=O)Nc1cc(Nc2nccc(-c3cn(C)c4ccccc34)n2)c(OC)cc1N(C)CCN(C)C
reported value: >18.79

Please look at the items below and tell me HeLa-ACE2 CC50/CoV-2 EC50 for each one, in order.
1. OCCN1CCN(CC/C=C2\c3ccccc3Sc3ccc(Cl)cc32)CC1
2. O=C(CCCN1CCN(c2ccc(F)cc2)CC1)NC1c2ccccc2CSc2ccccc21 (centres unmarked) [MONATEPIL]
3. CCc1ccc2c(c1)N(CC(C)CN(C)C)c1ccccc1S2 (centres unmarked) [Ethylisobutrazine Hydrochloride]

Solution:
1. >8.08
2. >5.01
3. 10.48

* * *

tested on: SARS-CoV-2; assay: microbe, parasite or virus in culture; details: Severe acute respiratory syndrome coronavirus 2, HeLa-ACE2, read-out: SARS CoV-2 EC50 (μM)
Categorized via EC50: bin A (below 1 µM), bin B (1 µM to below 2 µM), bin C (2 µM or more)

Problem: Textbook exercise: identify the category of the compound given here, `CN1CCN(c2ccc(C(=O)NCc3cnc(C#N)nc3NCC(C)(C)C)cc2)CC1` , according to its measured value.
Solution: bin C

Problem: Textbook exercise: identify the category of the compound given here, COC(=O)C1=C(C)NC(C)=C(C(=O)OCCN2CCN(C(c3ccccc3)c3ccccc3)CC2)C1c1cccc([N+](=O)[O-])c1 (stereo not shown) , according to its measured value.
Solution: bin C

Problem: Textbook exercise: identify the category of the compound given here, `NCCc1cn(S(=O)(=O)c2c(Cl)nc3sccn23)c2ccccc12` , according to its measured value.
Solution: bin B

Problem: Textbook exercise: identify the category of the compound given here, `O=S(=O)(Nc1ccc(CCNC[C@H](O)c2cccnc2)cc1)c1ccc(-c2nc(-c3ccc(C(F)(F)F)cc3)cs2)cc1` , according to its measured value.
Solution: bin B

Problem: Textbook exercise: identify the category of the compound given here, COc1ccc2c(c1)CN(C)CC2c1ccc(Cl)c(Cl)c1 (stereo not shown) , according to its measured value.
Solution: bin C

* * *

test: in vitro; conditions: human
Param label: returns True when CC50 at 48 h < 20 µM, returns False otherwise, including exact equality.

molecule: CC[C@@H]1/C=C/C=C/C[C@H](C)[C@@H](O)[C@](C)(O)C(=O)[C@H](C)[C@@H](O)[C@H](C)C(=O)[C@H](C)[C@@H](O)[C@H](C)/C=C/C(=O)O[C@H]2[C@@H](C)[C@@H](CC1)O[C@]1(O[C@H](C[C@H](C)O)[C@H](C)CC1=O)[C@@H]2C [Oligomycin B]
class assignment: False

Problem: Please indicate whether the reported CC50 at 48 h of C[C@@H]1C[C@@H]([C@H](O)CC2CC(=O)NC(=O)C2)C(=O)[C@@H](C)C1 [Cycloheximide] is strictly below 20 µM.
Solution: True

Problem: Please indicate whether the reported CC50 at 48 h of C=C(C)[C@]12C[C@@H](C)[C@@]34O[C@](Cc5ccccc5)(O[C@@H]1[C@@H]3C=C(COC(=O)Cc1ccc(O)c(OC)c1)C[C@]1(O)C(=O)C(C)=C[C@@H]41)O2 [Resiniferatoxin] is strictly below 20 µM.
Solution: True

Problem: Please indicate whether the reported CC50 at 48 h of CO[C@H]1[C@@H](O)C[C@H](O[C@H]2[C@@H](O)C[C@H](O[C@H]3[C@@H](O)C[C@H](O[C@H]4CC[C@@]5(C)[C@H](CC[C@@H]6[C@@H]5C[C@@H](O)[C@]5(C)[C@@H](C7=CC(=O)OC7)CC[C@]65O)C4)O[C@@H]3C)O[C@@H]2C)O[C@@H]1C [Metildigoxin] is strictly below 20 µM.
Solution: True

Problem: Please indicate whether the reported CC50 at 48 h of CC[C@H]1CN2CCc3cc(OC)c(OC)cc3[C@@H]2C[C@@H]1C[C@H]1NCCc2cc(O)c(OC)cc21 [Cephaeline] is strictly below 20 µM.
Solution: True
